# Test system: ypt1^ts cells
# runDescription: Rescue of growth of ypt1^ts mutant yeast (OD600)
# Type: cell-based
# experimentalSetup: Saccharomyces cerevisiae, read-out: Ypt1-ts MRC (Minimum Rescue Concentration), ypt1^ts cells, 35° C. and 37° C., OD600; multiple results separated by a comma
valueKind: minimal effective concentration

                               recordsmiles                        valuekind          val
0     Nc1ncnc2c1c(-c1ccc(Cl)cc1)nn2C1CCCCC1  minimal effective concentration      > 50 µM
1  CC(C)(C)c1ccc(-c2nn(C(C)(C)C)c3ncnc(N)c23)cc1  minimal effective concentration      > 50 µM
2     CC(C)(C)n1nc(COCc2ccccc2)c2c(N)ncnc21  minimal effective concentration      > 50 µM
3  CC(C)(C)n1nc(Cc2ccc3c(c2)OCO3)c2c(N)ncnc21  minimal effective concentration  10 to 50 µM
4       Nc1ncnc2c1c(-c1ccc(Cl)cc1)nn2CC1CC1  minimal effective concentration      < 10 µM
